FYI, the data here is from ChEMBL document CHEMBL4049435.

# ASSAYED SYSTEM: Kynurenine 3-monooxygenase (Homo sapiens)
# Sequence (O15229 whole entry): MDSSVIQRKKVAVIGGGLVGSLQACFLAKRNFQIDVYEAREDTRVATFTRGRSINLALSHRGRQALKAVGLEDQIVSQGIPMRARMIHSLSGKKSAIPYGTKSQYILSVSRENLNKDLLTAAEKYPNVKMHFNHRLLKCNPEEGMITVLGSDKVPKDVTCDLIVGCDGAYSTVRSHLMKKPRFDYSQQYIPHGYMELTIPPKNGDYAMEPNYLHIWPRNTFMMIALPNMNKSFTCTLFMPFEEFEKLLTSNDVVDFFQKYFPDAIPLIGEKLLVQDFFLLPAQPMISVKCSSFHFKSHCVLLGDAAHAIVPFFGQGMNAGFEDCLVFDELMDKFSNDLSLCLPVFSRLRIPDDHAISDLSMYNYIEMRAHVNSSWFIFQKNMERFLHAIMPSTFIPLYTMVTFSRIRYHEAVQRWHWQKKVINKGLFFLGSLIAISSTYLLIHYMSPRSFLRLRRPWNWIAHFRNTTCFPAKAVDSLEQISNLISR
Recorded pIC50 values for a group of compounds are listed next.
Lab note: report pIC50 as minus log10 of the concentration in molar units, number only.

Below, 3 compounds whose answers are already recorded.
| COMPOUND SMILES | ASSAYED SYSTEM | READOUT LABEL | EXPERIMENTAL RESULT |
| --- | --- | --- | --- |
| NC(CO)(CO)CO.O=C(O)CCn1c(=O)oc2cc(OC3CC3)c(Cl)cc21 | Kynurenine 3-monooxygenase (Homo sapiens) | pIC50 | 5.90 |
| Cc1ccc([C@@H](C)Oc2cc3onc(CCC(=O)O)c3cc2Cl)nn1 | Kynurenine 3-monooxygenase (Homo sapiens) | pIC50 | 8.50 |
| C[C@@H](Oc1cc2oc(=O)n(CCC(=O)O)c2cc1Cl)c1cccnn1 | Kynurenine 3-monooxygenase (Homo sapiens) | pIC50 | 6.20 |

Here Cc1cc2oc(=O)n(CCC(=O)O)c2cc1Cl.NC(CO)(CO)CO was tested on Kynurenine 3-monooxygenase (Homo sapiens), and its pIC50 came to 6.20

Here NC(CO)(CO)CO.O=C(O)CCn1c(=O)oc2cc(OCC3CC3)c(Cl)cc21 was tested on Kynurenine 3-monooxygenase (Homo sapiens), and its pIC50 came to 5.80

Here NC(CO)(CO)CO.O=C(O)CCn1c(=O)oc2cc(OCc3ccccn3)c(Cl)cc21 was tested on Kynurenine 3-monooxygenase (Homo sapiens), and its pIC50 came to 5.30
